All values here come from ChEMBL document CHEMBL4257579.

Molecular target: Beta-3 adrenergic receptor (Homo sapiens)
Sequence (P13945 whole entry): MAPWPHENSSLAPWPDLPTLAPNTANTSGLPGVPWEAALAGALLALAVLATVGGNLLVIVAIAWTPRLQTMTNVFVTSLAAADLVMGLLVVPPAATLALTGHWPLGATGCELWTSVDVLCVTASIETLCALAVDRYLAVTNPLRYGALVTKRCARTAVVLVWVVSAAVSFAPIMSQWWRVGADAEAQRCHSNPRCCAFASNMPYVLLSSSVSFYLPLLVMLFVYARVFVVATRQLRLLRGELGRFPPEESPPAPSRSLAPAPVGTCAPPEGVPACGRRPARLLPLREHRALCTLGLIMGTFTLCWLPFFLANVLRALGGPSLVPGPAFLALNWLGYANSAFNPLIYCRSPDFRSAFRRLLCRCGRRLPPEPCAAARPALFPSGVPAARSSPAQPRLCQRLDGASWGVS
Test: Displacement of [3H]CGP12177 from human beta 3 adrenergic receptor expressed in HEK293FlpIN cells by radioligand binding assay
pKi: −log10 of the molar value.
outcome-measure: pKi

* OC1(c2ccc(Cl)c(C(F)(F)F)c2)CCN(CCCC(c2ccc(F)cc2)c2ccc(F)cc2)CC1 | 6.29

* * *

Target: Histamine H2 receptor (Homo sapiens, UniProt P25021)
Sequence (P25021 whole entry): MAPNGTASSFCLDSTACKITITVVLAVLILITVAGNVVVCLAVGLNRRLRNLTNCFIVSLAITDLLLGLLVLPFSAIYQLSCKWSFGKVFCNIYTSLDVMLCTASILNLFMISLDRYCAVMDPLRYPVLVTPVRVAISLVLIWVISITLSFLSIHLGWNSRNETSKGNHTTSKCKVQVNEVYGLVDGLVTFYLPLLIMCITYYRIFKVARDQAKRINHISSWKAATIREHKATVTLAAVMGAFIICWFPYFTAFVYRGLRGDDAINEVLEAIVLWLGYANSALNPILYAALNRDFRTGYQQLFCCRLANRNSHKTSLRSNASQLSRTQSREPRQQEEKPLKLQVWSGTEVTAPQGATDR
Assay: Displacement of [3H]Cimetidine from human H2 receptor expressed in HEK cells by radioligand binding assay relative to control
Type: cell-based
Set-up: concentration or dose not given beside the values
Conditions: concentration not given here
outcome-measure: inhibition (%)

* OC1(c2ccc(Cl)c(C(F)(F)F)c2)CCN(CCCN(c2ccc(F)cc2)c2ccc(F)cc2)CC1 | 98.3
* OC1(c2ccc(Cl)c(C(F)(F)F)c2)CCN(CCCCCc2ccc(F)cc2)CC1 | 69.2
* OC1(c2ccc(Cl)c(C(F)(F)F)c2)CCN(CCCCC(c2ccc(F)cc2)c2ccc(F)cc2)CC1 | 94
* OC1(c2ccc(Cl)c(C(F)(F)F)c2)CCN(CCCC(c2ccc(F)cc2)c2ccc(F)cc2)CC1 | 98.4
* OC1(c2ccc(Cl)c(C(F)(F)F)c2)CCN(CCCC(c2ccccc2)c2ccccc2)CC1 | 89.5
* OC1(c2ccc(Cl)c(C(F)(F)F)c2)CCN(CCCC=C(c2ccc(F)cc2)c2ccc(F)cc2)CC1 | 82.6
